experiment: clinical; parameters: species or system human; conditions: human, in vivo, iv, 5 mg
Peptide text beside a SMILES is read from it.
Recorded endpoint: AUC(0-inf) (ng·h/mL)
Express it in ng·h/mL; write the number only.

Can you share its AUC(0-inf)? I mean this compound: CC(=O)N[C@H](C(=O)N[C@H](CO)C(=O)N[C@H]1CCNC(=O)[C@H]([C@@H](C)O)NC(=O)[C@H](CCN)NC(=O)[C@H](CCN)NC(=O)[C@H](CC(C)C)NC(=O)[C@@H](Cc2ccccc2)NC(=O)[C@H](CCN)NC1=O)[C@@H](C)O [SPR741] (HELM PEPTIDE1{[ac].T.[dS].[Dab].[Dab].[dF].L.[Dab].[Dab].T}$PEPTIDE1,PEPTIDE1,4:R3-10:R2$$$V2.0)
1010
